Where do these numbers come from? They come from ChEMBL document CHEMBL1147625.

# testSystem: Human immunodeficiency virus type 1 integrase (Human immunodeficiency virus 1, UniProt Q7ZJM1)
# Sequence (Q7ZJM1 whole entry): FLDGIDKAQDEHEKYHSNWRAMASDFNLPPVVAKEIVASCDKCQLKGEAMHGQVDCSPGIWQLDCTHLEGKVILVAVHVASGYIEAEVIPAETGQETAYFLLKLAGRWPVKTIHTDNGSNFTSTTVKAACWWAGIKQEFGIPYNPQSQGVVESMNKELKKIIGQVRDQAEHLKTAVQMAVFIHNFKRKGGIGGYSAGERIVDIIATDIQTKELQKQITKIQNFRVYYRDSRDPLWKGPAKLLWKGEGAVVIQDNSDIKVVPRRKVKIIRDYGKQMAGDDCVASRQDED
pIC50: −log10 of the molar value.
List of pIC50 values.

{"columns": ["compound", "resultModifier", "pIC50"],
 "data": [
  ["O=C1C(O)=C(C(C2=C(O)C(=O)c3ccccc3C2=O)c2ccc(Cl)cc2)C(=O)c2ccccc21", "<", 4.00],
  ["CCCCCc1cc(O)cc2c1Oc1c(C=O)c(O)c(Cl)c(C(=O)CCCC)c1C(=O)O2", "=", 4.47],
  ["CC(Cc1ccc(O)c(O)c1)(C(=O)O)C(C)(Cc1ccc(O)c(O)c1)C(=O)O (stereo in doubt; form 2)", "=", 6.64],
  ["[N-]=[N+]=NC1CC(N=[N+]=[N-])c2cc(/C(O)=C\\C(=O)C(=O)O)ccc21 (stereo unspecified)", "=", 6.44],
  ["O=C(NNCC(O)COc1ccccc1)c1ccccc1O (stereo unspecified)", "<", 3.70],
  ["O=C1c2ccccc2SCC2CSC(c3ccccc3)N12 (stereo unspecified)", "=", 3.49],
  ["CC1C=C(NC(=O)C2=CC(NC(=O)C3=CC(N(C)C(=O)c4ccc(C(=O)N(C)C5=CC(C)C(C(=O)NC6=CC(C)C(C(=O)NC7=CC(C)C(C(=O)NCCCN(C)C)=C7)=C6)=C5)cc4)=CC3C)=CC2C)C=C1C(=O)NCCCN(C)C (stereo unspecified)", "=", 7.15],
  ["CC(Cc1ccc(O)c(O)c1)(C(=O)O)C(C)(Cc1ccc(O)c(O)c1)C(=O)O (stereo in doubt; form 1)", "=", 6.36],
  ["O=C(O)C(=O)/C=C(\\O)c1cc(OCc2ccccc2)cc(OCc2ccccc2)c1", "=", 7.23],
  ["COc1ccc(/C=C2\\C(=O)N(C(=O)c3ccccc3O)N=C2C)cc1", "=", 6.22],
  ["COc1cc(C(C2=C(O)C(=O)c3ccccc3C2=O)C2C(=O)c3ccccc3C(=O)C2O)cc(Br)c1O (stereo unspecified)", "=", 4.70],
  ["CC1=NN(C(=O)c2ccc(Cl)cc2)C(=O)/C1=C\\c1ccc(O)cc1", "<", 3.53],
  ["N#CCCc1cccc(/C(O)=C\\C(=O)C(=O)O)c1", "=", 5.82],
  ["CC1C=C(NC(=O)C2=CC(NC(=O)C3=CC(NC(=O)c4ccc(C(=O)NC5=CC(C)C(C(=O)NC6=CC(C)C(C(=O)NC7=CC(C)C(C(=O)NCCC(=N)N)=C7)=C6)=C5)cc4)=CC3C)=CC2C)C=C1C(=O)NCCC(=N)N (stereo unspecified)", "=", 7.05],
  ["O=C(/C=C/c1ccc(O)c(O)c1)NCC(OC(=O)/C=C/c1ccc(O)c(O)c1)C(=O)O (stereo unspecified)", "=", 6.43],
  ["[N-]=[N+]=NC1CCC(N=[N+]=[N-])c2cc(/C(O)=C\\C(=O)C(=O)O)ccc21 (stereo unspecified)", "=", 6.49]
]}
